# tested-target: HCV RNA-dependent RNA polymerase (NS5B) (Hepatitis C virus genotype 1b (isolate BK) (HCV), UniProt P26663)
# Sequence (P26663 2420-3010): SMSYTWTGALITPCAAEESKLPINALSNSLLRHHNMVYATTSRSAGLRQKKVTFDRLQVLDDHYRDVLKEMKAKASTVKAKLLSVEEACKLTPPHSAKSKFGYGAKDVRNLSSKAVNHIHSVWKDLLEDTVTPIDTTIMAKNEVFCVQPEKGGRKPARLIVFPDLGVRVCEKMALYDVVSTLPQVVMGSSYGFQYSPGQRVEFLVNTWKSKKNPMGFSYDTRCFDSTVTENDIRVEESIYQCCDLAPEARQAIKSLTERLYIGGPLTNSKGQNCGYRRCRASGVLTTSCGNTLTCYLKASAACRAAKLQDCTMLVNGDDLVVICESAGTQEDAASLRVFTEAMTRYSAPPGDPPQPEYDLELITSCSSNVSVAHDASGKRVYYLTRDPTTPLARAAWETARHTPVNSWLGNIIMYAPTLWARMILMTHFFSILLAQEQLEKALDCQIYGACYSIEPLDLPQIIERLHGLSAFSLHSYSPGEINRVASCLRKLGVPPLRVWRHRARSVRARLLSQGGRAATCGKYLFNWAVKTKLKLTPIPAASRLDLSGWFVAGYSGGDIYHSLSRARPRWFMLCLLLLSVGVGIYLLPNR
# assay-method-text: RNA-Dependent RNA HCV NS5B (polymerase) Assay and IC50 Determination
# Type: biochemical
# condition-details: purified HCV NS5B polymerase, polyA:U16 substrate, 32P-UTP incorporation; read-out: IC50
experimental-readout: IC50

{"molecule": "CNC(=O)c1c(-c2ccc(F)cc2)oc2cc(N(CCOCCOCc3ccc(C(=O)O)c([N+](=O)[O-])c3)S(C)(=O)=O)c(C3CC3)cc12 [Compound 29-8]", "IC50": "100 to 1000 nM"}
{"molecule": "CNC(=O)c1c(-c2ccc(F)cc2)oc2cc(N(CCOCCOCCOCCOCc3ccc(C(C)=O)cc3)S(C)(=O)=O)c(C3CC3)cc12 [Compound 02-8H]", "IC50": "> 1000 nM"}
{"molecule": "CCCCOC(=O)c1ccc(COCCOCCN(c2cc3oc(-c4ccc(F)cc4)c(C(=O)NC)c3cc2C2CC2)S(C)(=O)=O)cc1 [Compound 06-8B3]", "IC50": "100 to 1000 nM"}
{"molecule": "CNC(=O)c1c(-c2ccc(F)cc2)oc2cc(N(CCNC(=O)CNC(=O)c3cccc(CCCC(=O)O)c3)S(C)(=O)=O)c(C3CC3)cc12 [Compound 07-10]", "IC50": "> 1000 nM"}
{"molecule": "CCOC(=O)/C(O)=C/C(=O)c1cccc(COCCOCCOCCOCCN(c2cc3oc(-c4ccc(F)cc4)c(C(=O)NC)c3cc2C2CC2)S(C)(=O)=O)c1 [Compound 02-9C]", "IC50": "> 1000 nM"}

stdin: # query: IC50 of entry CCOC(=O)C(C)OCCOCCOCCN(c1cc2oc(-c3ccc(F)cc3)c(C(=O)NC)c2cc1C1CC1)S(C)(=O)=O (stereo not drawn) [Compound 30-2]
stdout: > 1000 nM

stdin: # query: IC50 of entry CNC(=O)c1c(-c2ccc(F)cc2)oc2cc(N(CCOCCOCc3ccc(C(=O)O)cc3)S(C)(=O)=O)c(C3CC3)cc12 [Compound 06-7B]
stdout: 100 to 1000 nM

stdin: # query: IC50 of entry CNC(=O)c1c(-c2ccc(F)cc2)oc2cc(N(CCOCCOCc3ccc(F)c(C(=O)O)c3)S(C)(=O)=O)c(C3CC3)cc12 [Compound 17A-8A]
stdout: 100 to 1000 nM

stdin: # query: IC50 of entry CNC(=O)c1c(-c2ccc(F)cc2)oc2cc(N(CCOCCOCc3ccc(C(=O)O)cc3C)S(C)(=O)=O)c(C3CC3)cc12 [Compound 18-10B]
stdout: < 100 nM

* * *

# tested-target: HCV RNA-dependent RNA polymerase (NS5B) (Hepatitis C virus genotype 1b (isolate BK) (HCV))
# assay-method-text: RNA-Dependent RNA HCV NS5B (polymerase) Assay and IC50 Determination
# Type: biochemical
# condition-details: IC50 (μM), purified HCV NS5B polymerase, polyA:U16 substrate, 32P-UTP incorporation
experimental-readout: IC50

The examples below pair each entry with its known result.
{"compound": "CNC(=O)c1c(-c2ccc(F)cc2)oc2cc(N(CCOCCOCCOCC(=O)NO)S(C)(=O)=O)c(C3CC3)cc12 [Compound 23-6C]", "IC50": "0.1 to 1 µM"}
{"compound": "CNC(=O)c1c(-c2ccc(F)cc2)oc2cc(N(CCOCCOCc3cccc(C(C)=O)c3)S(C)(=O)=O)c(C3CC3)cc12 [Compound 02-8A]", "IC50": "> 1 µM"}

stdin: Short answer please: IC50, HCV RNA-dependent RNA polymerase (NS5B) (Hepatitis C virus genotype 1b (isolate BK) (HCV)), entry CNC(=O)c1c(-c2ccc(F)cc2)oc2cc(N(CCOC(=O)CNC(=O)CCCC(=O)O)S(C)(=O)=O)c(C3CC3)cc12 [Compound 08-6]
stdout: 0.1 to 1 µM

stdin: Short answer please: IC50, HCV RNA-dependent RNA polymerase (NS5B) (Hepatitis C virus genotype 1b (isolate BK) (HCV)), entry CNC(=O)c1c(-c2ccc(F)cc2)oc2cc(N(CCOCCOCCOCCO)S(C)(=O)=O)c(C3CC3)cc12 [Compound 04-5]
stdout: > 1 µM

Source: patent US10947210B2
